I'd be grateful if you could share measured Papp A→B at 72 h, 100 µM for these entries.
# ASSAY_PROCEDURE: Static permeation study with 16HBE cell monolayer on porous membrane
# Format: in vitro ADME, human
# CONDITION_SUMMARY: human; static, with 16HBE lung cell barrier, 100 µM apical, 72 h, model parameter estimate; read-out: P12, apparent permeability from the apical to the basolateral compartment and vice versa (converted)
Counter-ions that a name gives are not always drawn.
Answer format: value, then unit.

- COMPOUND: "O=C(O)Cc1ccccc1Nc1c(Cl)cccc1Cl [diclofenac, diclofenac sodium salt]"
  Papp A→B at 72 h, 100 µM: "23 ×10⁻⁶ cm/s"

Now examine the next entry.
# lookup: Papp A→B at 72 h, 100 µM of Cn1c(=O)c2c(ncn2C)n(C)c1=O
43.7 ×10⁻⁶ cm/s

* * *

# ASSAY_PROCEDURE: Fluidic permeation study (QuasiVivo QV600) with 16HBE cell barrier
# Format: in vitro ADME
# CONDITION_SUMMARY: human; fluidic cell experiment, 200 µL/min; static P12 multiplied by factor F; read-out: P16, apparent permeability between the apical and basolateral chambers in the fluidic system (converted)
# Method: Fluidic permeation studies were performed in the MCmB QuasiVivo® […]), which was assembled according to the manufacturer's instructions. An apical and basolateral flow with a flow rate of 200 μL/min was used (Figure 7b). […] After the static and fluidic permeation studies, the model substances in the apical and basolateral CCM were quantified via HPLC measurements as described in Elberskirch et al.. […]
Where a name gives a salt, the structure may show the parent alone.
I'd be grateful if you could share measured Papp at 72 h, 100 µM for these entries.
Answer format: value, then unit.

I need Papp at 72 h, 100 µM for every entry listed below, if you could help.
1. O=C(O)Cc1ccccc1Nc1c(Cl)cccc1Cl [diclofenac, diclofenac sodium salt]
2. Cn1c(=O)c2c(ncn2C)n(C)c1=O

3.92 ×10⁻⁶ cm/s
14.9 ×10⁻⁶ cm/s
